Origin of measurements: patent EP0908457B1

# Tested on: Oryza sativa, (L.) Tebonnet
# experimental.details: Rice tolerance to post-transplant applications under flooded paddy conditions (Example 187), ORYSAT (Rice, Tebonnet); for herbicidal effect rating ORYSAT: meaning of each grade not given here
# test.conditions: Rate 0.2500 kg/ha, rated three to four weeks after treatment
Labelling field: enter t if recorded herbicidal effect rating ORYSAT is less than 5. Enter f if it equals or exceeds that cut-off.

Here's what some known entries look like.
COc1ccc(OC)c(-c2nsc3ccc(-n4c(=O)cc(C(F)(F)F)n(C)c4=O)cc23)c1 [Example 333]	f
Cn1c(C(F)(F)F)cc(=O)n(-c2ccc3snc(C(C#N)=Cc4ccoc4)c3c2)c1=O [Example 593]	t
C#CCOC(=O)COc1cccc(-c2nsc3ccc(-n4c(=O)cc(C(F)(F)F)n(C)c4=O)cc23)c1 [Example 326]	f
Cn1c(C(F)(F)F)cc(=O)n(-c2ccc3snc(C(=O)NS(=O)(=O)c4cccs4)c3c2)c1=O [Example 391]	t
Cc1ccc(S(=O)(=O)NC(=O)c2nsc3ccc(-n4c(=O)cc(C(F)(F)F)n(C)c4=O)cc23)cc1 [Example 353]	t

Is 5 strictly greater than the molecule's reported herbicidal effect rating ORYSAT? molecule: CC(c1nsc2ccc(-n3c(=O)cc(C(F)(F)F)n(C)c3=O)cc12)S(C)(=O)=O (centres unmarked) [Example 590]
f

Is 5 strictly greater than the molecule's reported herbicidal effect rating ORYSAT? molecule: COCc1nsc2cc(F)c(-n3c(=O)cc(C(F)(F)F)n(C)c3=O)cc12 [Example 378]
f

====

For each of the molecules below, state its ORYSAT.
# Test system: Oryza sativa, (L.) Tebonnet
# experimental.details: Rice tolerance to post-transplant applications under flooded paddy conditions (Example 187), ORYSAT (Rice, Tebonnet)
# test.conditions: 0.0620 kg/ha, herbicidal effect rating 0-9, three to four weeks after treatment
Numbers only.

In the examples that follow, each entry is paired with its recorded ORYSAT.
Cn1c(C(F)(F)F)cc(=O)n(-c2ccc3snc(/C=N/Nc4ccccc4)c3c2)c1=O	2.0
CCCCC(=O)c1nsc2ccc(-n3c(=O)cc(C(F)(F)F)n(C)c3=O)cc12	5.5

Would you mind giving ORYSAT for every molecule in the list below?
1. Cn1c(C(F)(F)F)cc(=O)n(-c2ccc3snc(C(=O)SCc4ccccc4)c3c2)c1=O
2. Cn1c(C(F)(F)F)cc(=O)n(-c2ccc3snc(C4(C#N)CC4)c3c2)c1=O

0.0
7.0

Would you mind giving ORYSAT for every molecule in the list below?
1. COC(=O)COc1cc2c(cc1-c1nsc3ccc(-n4c(=O)cc(C(F)(F)F)n(C)c4=O)cc13)CCC2
2. COC(=O)COc1ccc(I)cc1-c1nsc2ccc(-n3c(=O)cc(C(F)(F)F)n(C)c3=O)cc12
3. CCOCOCc1nsc2ccc(-n3c(=O)cc(C(F)(F)F)n(C)c3=O)cc12
4. Cn1c(C(F)(F)F)cc(=O)n(-c2ccc3snc(C(Br)S(=O)(=O)c4ccccc4)c3c2)c1=O (centres unmarked)

6.0
4.0
8.0
2.0

====

For each of the molecules below, state its SAGPY.
# Tested on: Sagittaria pygmaea, L.
# experimental.details: Preemergence weed control under flooded paddy conditions, SAGPY (Arrowhead (Pygmaea))
# Format: in vivo
# test.conditions: 0.0620 kg/ha; preemergence weeds, flooded paddy; herbicidal effect rating 0-9, three to four weeks after treatment
One number for each entry.

In the examples that follow, each entry is paired with its recorded SAGPY.
CCOCN(C(=O)c1nsc2ccc(-n3c(=O)cc(C(F)(F)F)n(C)c3=O)cc12)S(=O)(=O)Cc1ccccc1	6.0
CCC(C#N)c1nsc2ccc(-n3c(=O)cc(C(F)(F)F)n(C)c3=O)cc12 (stereo not shown)	6.0
Cn1c(C(F)(F)F)cc(=O)n(-c2ccc3snc(COC(=O)Cc4cccs4)c3c2)c1=O	5.0
CCCCC(=O)c1nsc2ccc(-n3c(=O)cc(C(F)(F)F)n(C)c3=O)cc12	5.5
COc1ccc(CC(=O)OCc2nsc3ccc(-n4c(=O)cc(C(F)(F)F)n(C)c4=O)cc23)cc1	5.0
CCOCOCc1nsc2ccc(-n3c(=O)cc(C(F)(F)F)n(C)c3=O)cc12	6.0

Attention now shifts to the item below.
Tell me SAGPY of Cc1ccsc1C=C(C#N)c1nsc2ccc(-n3c(=O)cc(C(F)(F)F)n(C)c3=O)cc12 when tested on Sagittaria pygmaea, L..
0.0
